system: Hep3B; assay: CCK-8 anti-proliferation assay, Hep3B; assay type: cell-based, human; conditions: 48 h, mean ± SD
measure.name: pIC50
Scale: negative log10 of molar concentration, which is what pIC50 denotes.

Data request, read-out pIC50, for N#C/C(=C\c1ccc(C2=CC(=O)c3ccccc3C2=O)o1)C(=O)NCCN1CCOCC1
4.46

----------
tested on: PC3; assay: CCK-8 anti-proliferation assay, PC3; type: cell-based, human; settings: Homo sapiens, PC-3, 20 μM, mean ± SD, read-out: Inhibition Rate (%) at 20 μM PC3
Label rule met when inhibition at 20 µM is at or above 10%; anything below gets rule not met.

Quick check, inhibition at 20 µM >= 10%? N#C/C(=C\c1ccc(C2=CC(=O)c3ccccc3C2=O)o1)C(=O)NC1CCN(Cc2ccccc2)CC1
rule not met

What would you report for COc1cc(-c2ccc(/C=C(\C#N)C(=O)NCc3cccc(C(F)(F)F)c3)o2)c(OC)c2ccccc12 ?
rule met

What would you report for COc1cc(-c2ccc(/C=C(\C#N)C(=O)NCCc3cccs3)o2)c(OC)c2ccccc12 ?
rule not met

What would you report for COc1cc(-c2ccc(/C=C(\C#N)C(=O)N3CC4CCCCC4C3)o2)c(OC)c2ccccc12 (stereo not shown) ?
rule met

What would you report for COc1cc(-c2ccc(/C=C(\C#N)C(=O)NCCN3CCCC3)o2)c(OC)c2ccccc12 ?
rule met

What would you report for COc1cc(-c2ccc(/C=C(\C#N)C(=O)N3CCc4ccccc4C3)o2)c(OC)c2ccccc12 ?
rule not met

What would you report for O=C(NCCC(=O)N1CCOCC1)c1ccc(C2=CC(=O)c3ccccc3C2=O)o1 ?
rule not met

----------
molecular target: recombinant STAT3 (Homo sapiens, UniProt P40763); assay: Biolayer interferometry (BLI) assay; conditions: 5c 7.81 to 250 μM, 25 °C, read-out: binding affinity (KD)
Sequence (P40763 whole entry): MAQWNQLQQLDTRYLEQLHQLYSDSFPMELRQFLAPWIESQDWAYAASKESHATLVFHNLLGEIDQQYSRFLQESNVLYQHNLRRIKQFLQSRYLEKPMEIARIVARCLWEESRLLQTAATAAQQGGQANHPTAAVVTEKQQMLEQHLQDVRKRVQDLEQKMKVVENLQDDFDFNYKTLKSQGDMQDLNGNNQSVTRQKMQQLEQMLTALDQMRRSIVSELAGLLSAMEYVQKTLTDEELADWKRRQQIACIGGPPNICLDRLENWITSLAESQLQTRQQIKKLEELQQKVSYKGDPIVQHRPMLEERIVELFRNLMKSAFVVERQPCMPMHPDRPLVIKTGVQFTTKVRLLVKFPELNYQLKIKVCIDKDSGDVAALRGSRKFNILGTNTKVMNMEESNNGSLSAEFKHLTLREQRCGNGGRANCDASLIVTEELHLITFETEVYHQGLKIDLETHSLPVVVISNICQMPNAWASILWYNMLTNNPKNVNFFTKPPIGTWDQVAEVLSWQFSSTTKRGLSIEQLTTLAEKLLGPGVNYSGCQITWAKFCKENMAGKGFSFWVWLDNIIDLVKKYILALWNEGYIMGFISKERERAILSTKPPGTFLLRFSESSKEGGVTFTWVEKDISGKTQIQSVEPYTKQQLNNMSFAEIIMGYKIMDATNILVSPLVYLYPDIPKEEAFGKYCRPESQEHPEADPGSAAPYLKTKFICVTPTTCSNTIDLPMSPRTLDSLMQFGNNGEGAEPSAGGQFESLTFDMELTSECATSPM
measure.name: pKd
Scale: negative log10 of molar concentration, which is what pKd denotes.

Data request, read-out pKd, for N#C/C(=C\c1ccc(C2=CC(=O)c3ccccc3C2=O)o1)C(=O)NCCN1CCOCC1
4.89

----------
tested on: A549; assay: CCK-8 anti-proliferation assay, A549; type: cell-based, human; settings: 48 h, mean ± SD
measure.name: pIC50
Scale: negative log10 of molar concentration, which is what pIC50 denotes.

Data request, read-out pIC50, for N#C/C(=C\c1ccc(C2=CC(=O)c3ccccc3C2=O)o1)C(=O)NCCN1CCOCC1
4.45

----------
test system: PC3; assay: CCK-8 anti-proliferation assay, PC3; format: cell-based, human; details: Homo sapiens, PC-3, 20 μM, mean ± SD, read-out: Inhibition Rate (%) at 20 μM PC3
measure.name: inhibition at 20 µM (%)
# value in %; strip the unit string

Examples with answers:
N#C/C(=C\c1ccc(C2=CC(=O)c3ccccc3C2=O)o1)C(=O)N1CCc2ccccc2C1	17.8
O=C(NC1CCN(Cc2ccccc2)CC1)c1ccc(C2=CC(=O)c3ccccc3C2=O)o1	2.39
COc1cc(-c2ccc(/C=C(\C#N)C(=O)Nc3ccccc3)o2)c(OC)c2ccccc12	19.5

Data request, read-out inhibition at 20 µM, for COC(=O)c1ccc(-c2cc(OC)c3ccccc3c2OC)o1
21.6

----------
tested on: HeLa; assay: CCK-8 anti-proliferation assay, HeLa; assay type: cell-based, human; conditions: Homo sapiens, 20 μM, mean ± SD, read-out: Inhibition Rate (%) at 20 μM HeLa
measure.name: inhibition at 20 µM (%)
# value in %; strip the unit string

COc1cc(-c2ccc(/C=C(\C#N)C(=O)NCCc3cccs3)o2)c(OC)c2ccccc12 [Compound 4d]	11.6
N#C/C(=C\c1ccc(C2=CC(=O)c3ccccc3C2=O)o1)C(=O)NC1CCN(Cc2ccccc2)CC1 [Compound 5a]	10.4
COc1cc(-c2ccc(/C=C(\C#N)C(=O)NCc3cccc(C(F)(F)F)c3)o2)c(OC)c2ccccc12 [Compound 4g]	16.1

# input for lookup
Data request, read-out inhibition at 20 µM, for COC(=O)c1ccc(-c2cc(OC)c3ccccc3c2OC)o1 [Compound 6]
27

----------
test system: PC3; experiment: CCK-8 anti-proliferation assay, PC3; assay type: cell-based, human; settings: 48 h, mean ± SD
measure.name: IC50

Data request, read-out IC50, for N#C/C(=C\c1ccc(C2=CC(=O)c3ccccc3C2=O)o1)C(=O)NCCN1CCOCC1 [Compound 5c]
20.5 µM

----------
test system: HCT116; assay: CCK-8 anti-proliferation assay, HCT116; assay type: cell-based, human; settings: Homo sapiens, HCT-116, 20 μM, mean ± SD, read-out: Inhibition Rate (%) at 20 μM HCT116
measure.name: inhibition at 20 µM
Reply with the number and its unit after it.

Examples with answers:
COc1cc(N2CCC(N(C)C)CC2)ccc1NC(=O)c1ccc(-c2cc(OC)c3ccccc3c2OC)o1	47.8%
COc1cc(-c2ccc(/C=C(\C#N)C(=O)NCCN3CCOCC3)o2)c(OC)c2ccccc12	18.8%
CC1(C)CC(NC(=O)/C(C#N)=C/c2ccc(C3=CC(=O)c4ccccc4C3=O)o2)CC(C)(C)N1	5.97%
N#C/C(=C\c1ccc(C2=CC(=O)c3ccccc3C2=O)o1)C(=O)N1CC2CCCCC2C1 (centres unmarked)	3.41%

Data request, read-out inhibition at 20 µM, for COc1cc(-c2ccc(/C=C(\C#N)C(=O)NC3CC(C)(C)NC(C)(C)C3)o2)c(OC)c2ccccc12
40.5%

What would you report for COC(=O)c1ccc(-c2cc(OC)c3ccccc3c2OC)o1 ?
16.8%

What would you report for COC(=O)c1ccc(C2=CC(=O)c3ccccc3C2=O)o1 ?
17.7%

What would you report for COc1cc(-c2ccc(/C=C(\C#N)C(=O)N3CCc4ccccc4C3)o2)c(OC)c2ccccc12 ?
19.6%

What would you report for COc1cc(-c2ccc(C(=O)NCc3cc(C(F)(F)F)ccc3F)o2)c(OC)c2ccccc12 ?
14.5%

What would you report for COc1cc(-c2ccc(/C=C(\C#N)C(=O)Nc3ccccc3)o2)c(OC)c2ccccc12 ?
11.5%

What would you report for COc1cc(-c2ccc(C(=O)NCCC(=O)N3CCOCC3)o2)c(OC)c2ccccc12 ?
4.73%

----------
test system: HeLa; assay: CCK-8 anti-proliferation assay, HeLa; type: cell-based, human; conditions: Homo sapiens, 20 μM, mean ± SD, read-out: Inhibition Rate (%) at 20 μM HeLa
Label YES when inhibition at 20 µM is at or above 30%; anything below gets NO.

Quick check, inhibition at 20 µM >= 30%? N#C/C(=C\c1ccc(C2=CC(=O)c3ccccc3C2=O)o1)C(=O)N1CC2CCCCC2C1 (centres unmarked) [Compound 5f]
NO

----------
tested on: HeLa; assay: CCK-8 anti-proliferation assay, HeLa; format: cell-based, human; settings: Homo sapiens, 20 μM, mean ± SD, read-out: Inhibition Rate (%) at 20 μM HeLa
# key: entry, value: inhibition at 20 µM
# value in %; strip the unit string

Examples with answers:
CC1(C)CC(NC(=O)/C(C#N)=C/c2ccc(C3=CC(=O)c4ccccc4C3=O)o2)CC(C)(C)N1	29.7
COc1cc(-c2ccc(C(=O)Nc3ccc(CN4CCN(C)CC4)c(C(F)(F)F)c3)o2)c(OC)c2ccccc12	28.5
COc1cc(-c2ccc(C(=O)NCc3cc(C(F)(F)F)ccc3F)o2)c(OC)c2ccccc12	22.7
COc1cc(-c2ccc(/C=C(\C#N)C(=O)NCCN3CCCC3)o2)c(OC)c2ccccc12	35
COc1cc(-c2ccc(/C=C(\C#N)C(=O)NC3CCN(Cc4ccccc4)CC3)o2)c(OC)c2ccccc12	13.6

Data request, read-out inhibition at 20 µM, for COc1cc(-c2ccc(C(=O)NC3CCN(Cc4ccccc4)CC3)o2)c(OC)c2ccccc12
20.9

What would you report for CC(NC(=O)c1ccc(C2=CC(=O)c3ccccc3C2=O)o1)c1ccccc1 (stereo not drawn) ?
18.6

What would you report for COc1cc(N2CCC(N(C)C)CC2)ccc1NC(=O)c1ccc(-c2cc(OC)c3ccccc3c2OC)o1 ?
55.6

What would you report for COc1cc(-c2ccc(/C=C(\C#N)C(=O)N3CCc4ccccc4C3)o2)c(OC)c2ccccc12 ?
11.7

What would you report for O=C(NC1CCN(Cc2ccccc2)CC1)c1ccc(C2=CC(=O)c3ccccc3C2=O)o1 ?
42.9

----------
# key: entry, value: inhibition at 20 µM
test system: PC3; assay: CCK-8 anti-proliferation assay, PC3; type: cell-based, human; conditions: Homo sapiens, PC-3, 20 μM, mean ± SD, read-out: Inhibition Rate (%) at 20 μM PC3
# value in %; strip the unit string

Examples with answers:
CC1(C)CC(NC(=O)/C(C#N)=C/c2ccc(C3=CC(=O)c4ccccc4C3=O)o2)CC(C)(C)N1	19.3
COC(=O)c1ccc(C2=CC(=O)c3ccccc3C2=O)o1	6.93
COc1cc(-c2ccc(C(=O)Nc3ccc(CN4CCN(C)CC4)c(C(F)(F)F)c3)o2)c(OC)c2ccccc12	16.5
COc1cc(-c2ccc(C(=O)NC3CCN(Cc4ccccc4)CC3)o2)c(OC)c2ccccc12	15.5
COc1cc(-c2ccc(/C=C(\C#N)C(=O)NC3CC(C)(C)NC(C)(C)C3)o2)c(OC)c2ccccc12	15.8

# input for lookup
Data request, read-out inhibition at 20 µM, for N#C/C(=C\c1ccc(C2=CC(=O)c3ccccc3C2=O)o1)C(=O)NCCc1cccs1
15.5

Where these numbers come from: paper PMC9609996
